Where do the numbers come from? From PubChem BioAssay (NCI).

Test system: OVCAR-4 ovarian
procedure.details: NCI-60 one-dose screen, 48 h
cond: 10 µM
Compounds without any hit were thinned out: in the full panel of roughly 83,000, 20% have a hit. Calls of active or inactive are those of the source. Rule for the calls: active = growth percent below 10; inactive = the rest.
Bench note: report the call from active, inactive

Example entries and their recorded answers appear below.
INSERT INTO assay_data (compound, group_label) VALUES
  ('CCNC1(NC#N)CCCCC1', 'inactive'),
  ('CC(C)C[C@H](NC(=O)Cn1ccc(Nc2ccccc2)cc1=O)B(O)O', 'inactive');

Call for entry "Cc1nc(Nc2nc3ccccc3o2)nc(-c2cccc([N+](=O)[O-])c2)c1C(=O)Nc1ccc(F)c(Cl)c1" :
inactive

Call for entry "FC(F)(F)c1ccc(-c2cnc(Cl)nc2NCc2cc(C(F)(F)F)cc(C(F)(F)F)c2)cc1" :
inactive

Call for entry "COc1ccc(OC)c([N+](=O)[O-])c1C=O" :
inactive

Call for entry "O=C(Nc1cccc(C(F)(F)F)c1)C(Cl)Cl" :
inactive

Call for entry "CCOc1ccc(-n2cc(-c3ccc(N(C)C)cc3)[n+]3c2CCCCC3)cc1" :
active

Call for entry "Cc1ccc(/C(CS(=O)(=O)c2ccc(C)cc2)=N\O)cc1" :
inactive

Call for entry "COc1cc2ccnc(C=O)c2cc1OC" :
inactive

Call for entry "COc1ccc(-c2nc3sc(-c4ccccc4)c(-c4ccccc4)n3c2/C=C/c2ccc(F)cc2)cc1" :
inactive

Call for entry "COc1ccc2nc(NC(=O)Nc3c(F)cccc3F)sc2c1" :
inactive

Call for entry CCCCN(CCCC)c1ccc(C(=NC(C)CCCN(CC)CC)c2ccc(N(C)C)cc2)cc1 (stereo not drawn) :
active

Call for entry "Oc1ccccc1-c1nnc(Cn2c(Cc3cccc4ccccc34)nc3ccccc32)o1" :
inactive
